- TESTED_ON: full length active recombinant SYK enzyme (Homo sapiens, UniProt P43405)
- Construct: full length active recombinant SYK enzyme (Millipore, Calif.)
- ASSAY: Inhibition of Syk tyrosine phosphorylation activity (LANCE TR-FRET kinase assay)
- EXPERIMENTAL_CONTEXT: 1 nM SYK, 550 nM substrate, 100 μM ATP, 1 hour room temperature
Give measured IC50 for each item. Keep answers brief.

Give recorded IC50. NC(=O)c1cnc(N[C@H](C2CC2)C2(N)CC2)nc1Nc1ccc2c(c1)CCCN2
10 to 100 nM

Complete the entry with IC50 for NC(=O)c1cnc(Nc2ccccc2)nc1NC1CCC(N)CC1 (centres unmarked)
10 to 100 nM

Give a short answer stating reported IC50 for NC(=O)c1cnc(N[C@@H]2CCCC(F)(F)[C@@H]2N)nc1Nc1cccc(-n2nccn2)c1 .
100 to 1000 nM

Provide measured IC50 value, entry: CC(C)[C@@H](Nc1ncc(C(N)=O)c(Nc2cc(F)cc(F)c2)n1)C1(N)CC1
10 to 100 nM

Answer with reported IC50 of NC(=O)c1cnc(N[C@@H]2CCC[C@H](F)[C@@H]2N)nc1Nc1ccc2ncsc2c1
10 to 100 nM

Respond only with IC50 recorded for CCN1CCc2c(Nc3nc(N[C@@H](CN)C4CC4)ncc3C(N)=O)cccc21
10 to 100 nM

Tell me measured IC50 for COc1cccc(Nc2nc(N[C@H](CC3CC3)C(N)=O)ncc2C(N)=O)c1 please.
100 to 1000 nM

In one line, give reported IC50 of the entry CC(NC1CCCC[C@H]1Nc1ncc(C(N)=O)c(Nc2cccc(-n3nccn3)c2)n1)N[C@H]1CCCC[C@H]1Nc1ncc(C(N)=O)c(Nc2cccc(-n3nccn3)c2)n1 (some centres unmarked) .
100 to 1000 nM

Indicate the recorded IC50 value for this compound: NC(=O)c1cnc(NCC2(N)CC2)nc1Nc1cccc(-n2cccn2)c1
10 to 100 nM

Read the entry NC(=O)c1cnc(N[C@@H]2CCOC[C@@H]2N)nc1Nc1ccc2scnc2c1 and write its reported IC50.
10 to 100 nM

Please list IC50 recorded for the compound NC(=O)c1cnc(N[C@@H]2CCCC[C@@H]2N)nc1Nc1cc(-n2cccn2)cc(-n2cccn2)c1
1 to 10 nM

Tell me its IC50 given Cc1cccc(Nc2nc(NCC(N)C(C)(F)F)ncc2C(N)=O)c1 (centres unmarked) as the entry.
100 to 1000 nM

Please report IC50 for the following compound: NC(=O)c1cnc(N[C@@H]2CCCC[C@@H]2N)nc1Nc1cc(Br)cc(-n2nccn2)c1
10 to 100 nM

Fill in reported IC50 for this entry: Cc1cc2c(Nc3nc(NC[C@@H](N)CC(F)F)ncc3C(N)=O)cccc2n1C
10 to 100 nM

Kindly indicate its recorded IC50. Item: Cc1cc(C)cc(Nc2nc(N[C@@H]3CCCC(F)(F)[C@@H]3N)ncc2C(N)=O)c1
100 to 1000 nM

Identify the reported IC50 for the following entry. Cn1ccc2c(Nc3nc(NCC(N)C(C)(F)F)ncc3C(N)=O)cccc21 (centres unmarked)
10 to 100 nM

For NC(=O)c1cnc(N[C@@H]2CCC[C@H](F)[C@@H]2N)nc1Nc1cccc(-c2ncccn2)c1 , write its IC50.
10 to 100 nM

Return the recorded IC50 value; entry: C[C@@H](Nc1ncc(C(N)=O)c(Nc2cccc(-c3ncccn3)c2)n1)C1(N)CC1
1 to 10 nM

Query IC50 for COc1cccc(Nc2nc(N[C@@H](C(N)=O)C3CC3)ncc2C(N)=O)c1
100 to 1000 nM

For the compound CN1CCCc2cc(Nc3nc(N[C@H]4CN[C@@H](CO)C4)ncc3C(N)=O)ccc21 , give its measured IC50 value.
10 to 100 nM

Quote IC50 reported for NC(=O)c1cnc(N[C@@H]2CCC[C@H](F)[C@@H]2N)nc1Nc1cnc2ccccc2c1 please.
100 to 1000 nM

Give the value of IC50 reported for the following: COc1ccc(Nc2ncc(C(N)=O)c(N[C@H]3CC[C@H](N)CC3)n2)cc1
100 to 1000 nM

Retrieve IC50 measured for Cc1nsc(Nc2nc(N[C@@H]3CCCC[C@@H]3N)ncc2C(N)=O)c1Cl and print it.
10 to 100 nM

Indicate the recorded IC50 value for this compound: NC(=O)c1cnc(N[C@@H]2CCNC2)nc1Nc1ccc2ncccc2c1
10 to 100 nM

Read off the recorded IC50 for Cc1ccc(Nc2nc(NC[C@@H](N)CC(F)F)ncc2C(N)=O)cc1
100 to 1000 nM

Identify the reported IC50 for the following entry. CCC[C@@H](Nc1ncc(C(N)=O)c(Nc2cccc(OC)c2)n1)C(N)=O
100 to 1000 nM

Give IC50 for the following compound: NC(=O)c1cnc(N[C@@H]2CCCC[C@@H]2N)nc1Nc1ccc2ccncc2c1
10 to 100 nM

Name the recorded IC50 of the compound listed here: CN(C)c1ncc(C(N)=O)c(Nc2cccc(-n3nccn3)c2)n1
100 to 1000 nM

# return recorded IC50 for input NC(=O)c1cnc(N[C@@H]2CCCC(F)(F)[C@@H]2N)nc1Nc1ccc2scnc2c1
100 to 1000 nM

Tell us which IC50 value is on record for Cn1ccc2c(Nc3nc(NC[C@@H](N)CC(F)F)ncc3C(N)=O)ccc(F)c21
10 to 100 nM

Specify reported IC50 for the compound shown: COc1cncc(Nc2nc(N[C@@H]3CCCC[C@@H]3N)ncc2C(N)=O)c1
10 to 100 nM

Give the measured IC50 for CC(C)[C@@H](Nc1ncc(C(N)=O)c(Nc2cccc(F)c2)n1)C1(N)CC1
1 to 10 nM

----------
- TESTED_ON: full length active recombinant SYK enzyme (Homo sapiens)
- Construct: full length active recombinant SYK enzyme (Millipore, Calif.)
- ASSAY: Inhibition of Syk tyrosine phosphorylation activity (LANCE TR-FRET kinase assay)
- EXPERIMENTAL_CONTEXT: 1 nM SYK, 550 nM substrate, 100 μM ATP, 1 hour room temperature
ENDPOINT: IC50

Please look at this molecule and report its IC50: CN1C(=O)Cc2c(Nc3nc(N[C@@H]4CCCC[C@@H]4N)ncc3C(N)=O)cccc21
0.1 to 1 µM

Quote IC50 reported for NC(=O)c1cnc(N[C@H](C2CC2)C2(N)CC2)nc1Nc1csc2ncccc12 please.
0.001 to 0.01 µM

Note down IC50 recorded for NC(=O)c1cnc(N[C@@H]2CCCC[C@@H]2N)nc1Nc1csc2ncccc12
0.001 to 0.01 µM

Identify IC50 associated with the molecule NC(=O)c1cnc(N[C@H]2[C@@H](N)CCCC2(F)F)nc1Nc1cccc(-c2ncccn2)c1
0.01 to 0.1 µM

Hello, please tell me recorded IC50 for this one: CC(=O)Oc1cnn(-c2cccc(Nc3nc(N[C@@H]4CCCC[C@@H]4N)ncc3C(N)=O)c2)n1
> 1 µM

Fill in IC50 for record Cc1cccc(Nc2nc(N[C@@H](CN)CC(F)F)ncc2C(N)=O)c1
0.01 to 0.1 µM

Give IC50 for the following molecule: NC(=O)c1cnc(N[C@@H]2CCCC[C@@H]2CO)nc1Nc1cccc(-n2nccn2)c1 (racemic)
0.1 to 1 µM

Look up and report measured IC50 for this entry: NC(=O)c1cnc(N[C@@H]2CCN(C=O)C2)nc1Nc1cccc(-n2nccn2)c1
> 1 µM

Determine its reported IC50: NC(=O)c1cnc(N[C@@H]2CCOC[C@@H]2N)nc1Nc1ccc2ncccc2c1
0.001 to 0.01 µM

Note IC50 for the molecule shown: NC(=O)c1cnc(N[C@H](C2CC2)C2(N)CC2)nc1Nc1cnc2ccccc2c1
0.001 to 0.01 µM

Consider the molecule NC(=O)c1cnc(N[C@@H]2CCOC[C@@H]2N)nc1Nc1cnc2ccccc2c1 and give its recorded IC50.
0.01 to 0.1 µM

Specify measured IC50 for Cc1cccc(Nc2nc(NCC(N)CC(F)F)ncc2C(N)=O)c1 (centres unmarked) .
0.01 to 0.1 µM

Identify the reported IC50 for the following entry. CC(=O)N[C@H]1CCCC[C@H]1Nc1ncc(C(N)=O)c(Nc2cccc(-n3nccn3)c2)n1
0.1 to 1 µM

Answer with reported IC50 of NC(=O)c1cnc(N[C@@H]2CCCC[C@@H]2N)nc1Nc1cnn2ccccc12
0.001 to 0.01 µM

For NC(=O)c1cnc(N[C@@H]2CCC[C@H](F)[C@@H]2N)nc1Nc1cccc(-n2nccn2)c1 (racemic) [Example 174] , write its IC50.
0.01 to 0.1 µM

Kindly indicate its recorded IC50. Item: Cc1ccc(Nc2nc(NC[C@H](C)N)ncc2C(N)=O)cc1
0.1 to 1 µM

Kindly indicate its recorded IC50. Item: NC(=O)c1cnc(N[C@@H](C2CC2)C2(N)CC2)nc1Nc1cccc(-c2ncccn2)c1
0.1 to 1 µM

Entry Cc1cccc(Nc2nc(N[C@@H](c3ccccc3)C3(N)CC3)ncc2C(N)=O)c1 needs its IC50 filled in; supply it.
0.1 to 1 µM

Identify IC50 associated with the molecule Cc1cncc(Nc2nc(N[C@@H]3CCCC[C@@H]3N)ncc2C(N)=O)c1
0.01 to 0.1 µM

Recall and state the measured IC50 for NC(=O)c1cnc(N[C@H]2CN[C@@H](CF)C2)nc1Nc1cccc(-n2nccn2)c1 .
0.1 to 1 µM

For the molecule Cc1cccc(Nc2nc(N[C@H]3[C@@H](N)CCCC3(F)F)ncc2C(N)=O)c1 , give its measured IC50 value.
0.01 to 0.1 µM

Provide IC50 value for the following molecule: CC[C@@H](Nc1ncc(C(N)=O)c(Nc2ccc(-c3cncs3)cc2)n1)C(N)=O
0.01 to 0.1 µM

Name the recorded IC50 of the molecule listed here: COc1ccc(Nc2ncc(C(N)=O)c(N[C@H]3CC[C@@H](N)CC3)n2)cc1
0.01 to 0.1 µM

Please report the measured IC50 for Cc1ccc(Nc2nc(N[C@H]3[C@@H](N)CCCC3(F)F)ncc2C(N)=O)cc1
0.01 to 0.1 µM

Entry CC1=C[C@@H](Nc2ncc(C(N)=O)c(Nc3cccc(-n4nccn4)c3)n2)CN1 needs its IC50 filled in; supply it.
0.1 to 1 µM

Consider the molecule COc1cccc(Nc2nc(N[C@H](CC(C)C)C(N)=O)ncc2C(N)=O)c1 and give its recorded IC50.
0.01 to 0.1 µM

Consider the molecule NC(=O)c1cnc(NC[C@@H](N)CC(F)F)nc1Nc1cccc(-c2ncccn2)c1 . State its measured IC50.
0.1 to 1 µM

Assign IC50 to the following record: NC(=O)c1cnc(N[C@@H]2CCCC[C@@H]2N)nc1Nc1ccc2cccnc2c1
0.01 to 0.1 µM

Give the value of IC50 reported for the following: NC(=O)c1cnc(N[C@@H]2CCCC[C@@H]2N)nc1Nc1cccc(-n2ncc[n+]2[O-])c1
0.01 to 0.1 µM

Output measured IC50 for this item: Cc1csc(Nc2nc(N[C@H](CC(C)C)C(N)=O)ncc2C(N)=O)c1
0.01 to 0.1 µM

Please give measured IC50 of the following entry: NC(=O)c1cnc(N[C@@H]2CCNC2)nc1Nc1cccc(-c2ncccn2)c1
0.01 to 0.1 µM

Consider the molecule C=C1C[C@@H](Nc2ncc(C(N)=O)c(Nc3cccc(-n4nccn4)c3)n2)CN1 . State its measured IC50.
0.1 to 1 µM
